System: TK-10 renal
assayName: NCI tumour cell line growth inhibition, 48 h
attributeMeasured: TGI

The recorded TGI for `Nc1nc(N)c2cc(-c3cc4ccccc4[nH]3)ccc2n1` is 37.2 µM

The recorded TGI for `CCN(CC)C1=Nc2ccccc2-n2ccnc2C1` is > 100 µM

The recorded TGI for `COc1ccc(OC)c([N+](=O)[O-])c1-c1nc2sc(Cl)cn2c1/C=N/N=C(N)N` is 48.7 µM

The recorded TGI for CCN(CC)CCN1C(=O)C2C3C(C)=CC(OC(C)=O)(CC3C)C2C1=O (stereo unspecified) is > 100 µM

The recorded TGI for CCCCCCCCCCCC(c1ccccc1)[N+](C)(C)C (stereo unspecified) is 2.49 µM

The recorded TGI for `CCOC(=O)CCCN` is > 100 µM

The recorded TGI for COc1ccc(C(O)C(c2ccc(OCc3ccccc3)cc2)c2ccc(OCc3ccccc3)cc2)cc1 (stereo unspecified) is > 100 µM

The recorded TGI for `Nc1nc(N)c2cc(S(=O)(=O)c3cccc(C(F)(F)F)c3)ccc2n1` is > 100 µM

The recorded TGI for `COc1ccc(-c2nn3ncccc3c2-c2ccnc(Nc3ccc(F)c(F)c3)n2)cc1` is > 25 µM

The recorded TGI for CN(C)N1C(=C(C#N)C#N)C(c2ccccc2)CC1C#N (stereo unspecified) is > 100 µM

The recorded TGI for CC(Nc1cccc(Cl)c1)c1ccncc1 (stereo unspecified) is > 100 µM

The recorded TGI for `O=C(c1ccccc1)c1nc2ccc(Cl)cc2cc1C(Br)Br` is 1.83 µM

The recorded TGI for `CSC(=Nc1ccc([N+](=O)[O-])cc1C#N)NC(=O)c1ccccc1` is > 100 µM

The recorded TGI for `CCOc1cc2c(cc1OC)c[n+](C)c1c3cc(OC)c(OC)cc3ccc21` is > 100 µM

The recorded TGI for CC(C)(C)c1ccc(O)c(C(O)c2ccccn2)c1 (stereo unspecified) is > 100 µM

The recorded TGI for CCN1CC2=C(OC(N)=C(C#N)C2c2ccc(Cl)cc2)/C(=C/c2ccc(Cl)cc2)C1 (stereo unspecified) is > 100 µM

---

Tested on: SNB-19 CNS
assayName: NCI tumour cell line growth inhibition, 48 h
attributeMeasured: GI50

The recorded GI50 for Clc1ccc2c(NC3CCC(NC4CCCCC4)CC3)ccnc2c1 (stereo not drawn) is 21.3 µM

The recorded GI50 for `COc1cc2c(cc1OCCCCCOc1ccc(-c3nc4ccccc4s3)cc1)N=C[C@@H]1CCCN1C2=O` is 5.08 µM

The recorded GI50 for `Clc1ccc2c(NCCCCNc3nc(N4CCOCC4)nc4ccccc34)ccnc2c1` is 3.37 µM

---

Exercise: for every item that follows, state its recorded TGI.
System: HOP-62 NSCLC
assayName: NCI tumour cell line growth inhibition, 48 h
Where a SMILES comes first, the peptide text is derived from it. The star is where a group is joined. Cbz = O=C(OCc1ccccc1)*

Short answer on HOP-62 NSCLC for `c1ccc2[nH]c(-c3ccc(Nc4nc(N5CCCC5)nc5[nH]ncc45)cc3)nc2c1` , TGI: 3.07 µM

Short answer on HOP-62 NSCLC for CCOC(=O)CCC(NC(=O)C(CC(=O)OC)NC(=O)OCc1ccccc1)C(=O)NC(CC(=O)OC)C(=O)NC(CCC(=O)OCC)C(=O)NC(CC(=O)OC)C(=O)NC(CCC(=O)OCC)C(=O)NC(CC(=O)OCC)C(=O)OCC (centres undefined) (Cbz-D(OMe)E(OEt)D(OMe)E(OEt)D(OMe)E(OEt)D(OEt)-OEt; configuration not given here) , TGI: > 100 µM

Short answer on HOP-62 NSCLC for `CC(C)Cn1cnc2c(N)nc3ccccc3c21` , TGI: > 64.1 µM

Short answer on HOP-62 NSCLC for O=[N+]([O-])c1ccc(Cl)c(C2CC(c3cccc4ccccc34)=Nc3ccccc3S2=O)c1 (centres undefined) , TGI: > 62.6 µM

Short answer on HOP-62 NSCLC for `Clc1ccc(NCNC2Nc3ccccc3N2)cc1Cl` , TGI: > 100 µM

Short answer on HOP-62 NSCLC for CCCCCCCCCCCCCOCCOCCOCCCCC(O)CCCCCCCCCC1=C[C@H](C)OC1=O (some centres undefined) , TGI: > 100 µM

Short answer on HOP-62 NSCLC for O=S(=O)(c1ccccc1)N1CCC1c1ccccc1 (centres undefined) , TGI: > 100 µM

Short answer on HOP-62 NSCLC for `Oc1ccc(CCNc2nc3ccccc3c3[nH]c4ccccc4c23)cc1O` , TGI: 13.5 µM

Short answer on HOP-62 NSCLC for CCCCCCCCCCCC(c1ccccc1)[N+](C)(C)C (centres undefined) , TGI: 3.07 µM

Short answer on HOP-62 NSCLC for `Nc1nc(N)c2cc(S(=O)(=O)c3cccc(C(F)(F)F)c3)ccc2n1` , TGI: 34.2 µM

Short answer on HOP-62 NSCLC for CCN1CC2=C(OC(N)=C(C#N)C2c2ccc(Cl)cc2)/C(=C/c2ccc(Cl)cc2)C1 (centres undefined) , TGI: 78.4 µM

Short answer on HOP-62 NSCLC for `COc1cc2c(c3nc4ccccc4nc13)-c1ccc(SC)c(=O)cc1[C@@H](NC(C)=O)CC2` , TGI: > 100 µM

Short answer on HOP-62 NSCLC for `CCN(Cc1ccccc1)c1ccc(/C=C2\COc3ccccc3C2=O)cc1` , TGI: > 1000 µM

Short answer on HOP-62 NSCLC for `CCC(=O)N1C(=S)SC[C@H]1C(=O)OC` , TGI: > 100 µM

Short answer on HOP-62 NSCLC for `CCCSc1ccc2[nH]c(N3C(=O)/C(=C/c4ccc(O)c(OC)c4)N=C3c3ccccc3)cc2c1` , TGI: > 100 µM

Short answer on HOP-62 NSCLC for `C/C(=N/NC(=S)N1CCCCCC1)c1cccc(/C(C)=N\NC(=S)N2CCCCCC2)n1` , TGI: 3.82 µM

Short answer on HOP-62 NSCLC for `Clc1cccc(-c2cc(-c3ccc4c(c3)OCCO4)[nH]n2)c1` , TGI: 41.6 µM

Short answer on HOP-62 NSCLC for Cc1ccc(S(=O)(=O)N(CC(O)COc2ccccc2)c2c(F)c(F)c(F)c(F)c2F)cc1 (centres undefined) , TGI: 35.2 µM

Short answer on HOP-62 NSCLC for CC(NC(=O)c1ccc(Cl)c(Cl)c1)c1ccc(-c2ccccc2)cc1 (centres undefined) , TGI: 54.5 µM

Short answer on HOP-62 NSCLC for `Fc1ccc(F)c(C=NC23CC4CC(CC(C4)C2)C3)c1` , TGI: > 10 µM

Short answer on HOP-62 NSCLC for `Nc1nc(N)c2cc(-c3cc4ccccc4[nH]3)ccc2n1` , TGI: > 100 µM

Short answer on HOP-62 NSCLC for `COC(=O)[C@H](Cc1ccccc1)NC(=O)N(CCN(CCC#N)C(=O)N[C@H](C(=O)OC)C(C)C)c1ccccc1` , TGI: > 100 µM

Short answer on HOP-62 NSCLC for `CCOC(=O)c1nc(SC)sc1NC(=O)c1ccc(OC)cc1` , TGI: > 100 µM

Short answer on HOP-62 NSCLC for `O=S(=O)(O)c1cc(O)c(N=NC2S(=O)(=O)OCCOS2(=O)=O)c2ccccc12` , TGI: > 100 µM

Short answer on HOP-62 NSCLC for Cc1ccccc1NC(=O)C(=O)C(C1OC(=O)c2ccccc21)[N+](=O)[O-] (centres undefined) , TGI: > 100 µM

Short answer on HOP-62 NSCLC for `COC(=O)C12CCCN1CCC2` , TGI: > 100 µM

Short answer on HOP-62 NSCLC for `CN(c1ccccc1)c1nc(=[N+](C)C)ss1` , TGI: > 100 µM

Short answer on HOP-62 NSCLC for `CCCCCCc1cc2cc(C(=O)Nc3nc(C45CC6CC(CC(C6)C4)C5)cs3)c(=O)oc2cc1O` , TGI: 37.6 µM

Short answer on HOP-62 NSCLC for `N#Cc1cnc2ccc(NCc3cnc[nH]3)cc2c1Nc1ccc(F)c(Cl)c1` , TGI: > 100 µM

---

Exercise: for every item that follows, state its recorded TGI.
System: NCI-H23 lung
assayName: NCI tumour cell line growth inhibition, 48 h
Reply numerically in µM, unit not repeated.

The recorded TGI for `Cc1cc2c(cc1Cl)SC(=Nc1ccc(Cl)cc1)N(S(=O)(=O)c1ccc(Br)s1)S2(=O)=O` is 25

The recorded TGI for `C/C(=C1\C(=O)Nc2ccccc21)c1cccc(/C(C)=C2/C(=O)Nc3ccccc32)n1` is 60.5

The recorded TGI for `C/C(=N/NC(=S)N1CCCCCC1)c1cccc(/C(C)=N\NC(=S)N2CCCCCC2)n1` is 5.44

The recorded TGI for `CCOC(=O)c1sc2nc(=S)[nH]c(NC(N)=S)c2c1C` is 37.1
